Please respond with reported pIC50 for every item in the list.
Test system: A7R5 (rat aorta smooth muscle) cells
Protocol: Intracellular Ca2+ measurements, Fluo-4 NW Calcium Assay Kit, KCl-induced [Ca2+]i increase
Assay type: cell-based
Experimental parameters: Rattus norvegicus, A7R5, read-out: Ca^2+ A7R5, IC50
Lab note: report pIC50 as minus log10 of the concentration in molar units, number only.

Read the entry `COC(=O)c1c(C)nc2sc(C(=O)c3ccc(OC)cc3OC)c(N)c2c1-c1ccc(OC)c(OC)c1` and write its reported pIC50.
5.25

Read the entry `COc1ccc(C(=O)c2sc3nc(C)c(C(C)=O)c(-c4cc(OC)c(OC)c(OC)c4)c3c2N)cc1` and write its reported pIC50.
4.85

Read the entry `COC(=O)c1c(C)nc2sc(C(=O)c3ccc(OC)cc3)c(N)c2c1-c1ccc(OC)c(OC)c1` and write its reported pIC50.
5.22

Read the entry `COC(=O)c1c(C)nc2sc(C(=O)c3ccc(OC)cc3OC)c(N)c2c1-c1cc(OC)c(OC)c(OC)c1` and write its reported pIC50.
4.74

Read the entry `CCOC(=O)c1c(C)nc2sc(C(=O)c3ccc(OC)cc3)c(N)c2c1-c1cc(OC)c(OC)c(OC)c1` and write its reported pIC50.
4.72
